tested on: Apc10.1 cells; assay: Cell proliferation assay; assay type: cell-based, mice; details: Mus musculus, read-out: IC50 cell proliferation, Apc10.1, Has2 −
pIC50: −log10 of the molar value.
property-label: pIC50

{"molecule": "CC1(C)Cc2c(-c3ccccc3)c(-c3ccc(Cl)cc3)c(CC(=O)O)n2C1 [Licofelone]", "value-reported": 4.35}
